- Test method notes: NCI Yeast Anticancer Drug Screen. Data for the mec2-1 strain (AID 157)
- Condition details: S. cerevisiae mec2-1 strain, at 50.0 µM
The panel holds about 79,000 compounds, 15% with a hit somewhere; the sample as a whole holds those more often. Activity calls are given as the source filed them. Cut-off read from the data, not from the text of the source: active = growth inhibition above about 70%; inactive = the rest.
A correct response names exactly one class from Y for active, N for inactive

Reference set (3 entries):
Query: Called result for CCC(CC)NNC(CC)CC
Reply: N

Query: Called result for c1ccc2c(c1)Nc1nsnc1N2
Reply: N

Query: Called result for O=C1NCCCCCC1S(=O)c1ccccc1 (centres undefined)
Reply: N

New cases:
Query: Called result for C/C(N)=C\c1nc(=O)ccs1
Reply: N

Query: Called result for Cc1cc2nc3c(=O)[nH]c(=O)nc-3n(CCO)c2cc1C
Reply: N

Query: Called result for CC(=O)c1ccc[cH-]1.[Fe+2].c1cc[cH-]c1
Reply: N

Query: Called result for Oc1ccccc1CNc1ncc(Cl)cc1Cl
Reply: N

Query: Called result for Cc1ccc(CN(C)C)c(C(O)c2ccccc2)c1 (centres undefined)
Reply: N

Query: Called result for CC(=O)Nc1ccc(/C=c2\sc3nnc(CCC(=O)Nc4ccccc4Cl)n3c2=O)cc1
Reply: N

###

- Test method notes: NCI Yeast Anticancer Drug Screen. Data for the rad50 strain (AID 155);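 note: 0% = growth of vehicle-only cultures of the same strain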
- Condition details: S. cerevisiae rad50 strain growth inhibition; at 50.0 µM; hits give high values
Compounds without any hit were thinned out: in the full panel of roughly 79,000, 15% have a hit.
Let's look at some molecules and their measured growth inhibition.
Give the number; % is assumed, so skip it.

Guide cases for growth inhibition, answers given:
Query: Looking for the measured growth inhibition of O=C(Nc1ccc2[nH]c3c(-c4ccccc4)nccc3c2c1)c1ccccc1[N+](=O)[O-] , can you help?
Reply: 15.8

Query: Looking for the measured growth inhibition of CNC(=S)Nc1cccc(C)c1 , can you help?
Reply: -3.1

Query: Looking for the measured growth inhibition of COc1ccc(/C=C(\C)C=C(C#N)C#N)cc1 , can you help?
Reply: 45.5

Query: Looking for the measured growth inhibition of CCC(=O)OC1CCC2(C)C(=CCC3C2CCC2(C)C(C(C)CCCC(C)C)CCC32)C1 (stereo not given) , can you help?
Reply: 3.1

Query: Looking for the measured growth inhibition of CCCCC(O)(CC)CC , can you help?
Reply: 3.3

Query: Looking for the measured growth inhibition of c1ccc(CCc2ccncc2)cc1 , can you help?
Reply: -3.05

Query: Looking for the measured growth inhibition of CC(=O)Nc1ccc(NC(=O)Nc2cccc(C(C)=O)c2)cc1 , can you help?
Reply: 7.3

Query: Looking for the measured growth inhibition of O=S(=O)([O-])[O-].O=c1[nH]cnc2nc[n-]c12.[OH3+].[OH3+].[Zn+2] , can you help?
Reply: -26.8

New cases:
Query: Looking for the measured growth inhibition of O=C(O)c1ccccc1SC(Sc1ccccc1C(=O)O)c1cccs1 , can you help?
Reply: 12.4

Query: Looking for the measured growth inhibition of O=C(NCC(=O)N1CCCC1C(=O)OC(=O)C1CCCN1C(=O)CNC(=O)OCc1ccccc1)OCc1ccccc1 (stereo not given) , can you help?
Reply: 44.3

###

- Test method notes: NCI Yeast Anticancer Drug Screen. Data for the bub3 strain (AID 167)
- Condition details: S. cerevisiae bub3 mutant strain, at 50.0 µM, hits give high values
This is part of a sample that, as a whole, favours compounds with a hit. Of some 79,000 tested, about 15% had one in any assay.
Endpoint name: growth inhibition (%)
Give the number; % is assumed, so skip it.

Guide cases for growth inhibition, answers given:
Query: Looking for the measured growth inhibition of COC(=O)c1c(C)c(C)cc(C)c1C , can you help?
Reply: -7.1

Query: Looking for the measured growth inhibition of CCc1cccc(C(C)C)c1NC(=O)C(=O)C(C(=O)C(=O)OC)c1nc2ccccc2[nH]c1=O (configuration not stated) , can you help?
Reply: -9.5

Query: Looking for the measured growth inhibition of COc1cc(NCCCCCN2C(=O)c3ccccc3C2=O)c2ncccc2c1 , can you help?
Reply: 10.7

Query: Looking for the measured growth inhibition of CCN=NNc1ccc(C#N)cc1 , can you help?
Reply: 16.9

Query: Looking for the measured growth inhibition of COc1cccc(C(=O)C(O)c2cccc(OC)c2OC)c1OC (configuration not stated) , can you help?
Reply: -10.6

Query: Looking for the measured growth inhibition of ClC1(Cl)CC1c1ccccc1 (configuration not stated) , can you help?
Reply: 1.45

Query: Looking for the measured growth inhibition of N#C/C(=N\NC(=O)c1cccs1)c1ccccc1Cl , can you help?
Reply: 9.7

Query: Looking for the measured growth inhibition of Nc1ccc(S(=O)(=O)NCCS(=O)(=O)O)cc1 , can you help?
Reply: -16.2

New cases:
Query: Looking for the measured growth inhibition of O=c1c(C(=Nc2ccccc2)c2ccccc2)c[nH]n1-c1ccccc1 , can you help?
Reply: -15.6

Query: Looking for the measured growth inhibition of C=CCOc1cc2c(cc1C(C)c1ccc(OC)c(OC)c1)OCO2 (configuration not stated) , can you help?
Reply: 6.25

Query: Looking for the measured growth inhibition of C/C=C/C(=O)OCCC#N , can you help?
Reply: -17.1

Query: Looking for the measured growth inhibition of O=C(c1ccccc1)N(C(=O)c1ccccc1)c1cccc[n+]1[O-] , can you help?
Reply: -10.2

Query: Looking for the measured growth inhibition of CCCCI(O)OS(=O)(=O)c1ccc(C)cc1 , can you help?
Reply: -3.9

Query: Looking for the measured growth inhibition of c1ccc(-c2cc3nc4ccccc4nc3o2)cc1 , can you help?
Reply: 2.15

Query: Looking for the measured growth inhibition of CSc1ccc(C2OC(=O)c3ccccc32)c2ccccc12 (configuration not stated) , can you help?
Reply: -14.8

Query: Looking for the measured growth inhibition of C[C@H](CCc1nc(C#N)c(N)o1)[C@H]1CC[C@H]2[C@@H]3[C@@H](O)CC4C[C@@H](O)CC[C@]4(C)[C@H]3C[C@@H](O)[C@]12C (some centres not stated) , can you help?
Reply: -9.1

Query: Looking for the measured growth inhibition of CSc1ccc(NC(=S)SCc2ccc3c(c2)OCO3)cc1Cl , can you help?
Reply: 97.5
